# Test system: Streptococcus pyogenes SSI-9
# Measurement protocol: Antibacterial activity assay of bead-derived peptides (three concentrations)
# Type: cell-based
# Parameters: key: +++: inhibition by the 640-fold diluted peptide solution; ++: inhibition by the 160-fold diluted solution; +: inhibition by the 40-fold diluted solution; -: no inhibition
# Stated conditions: S. pyogenes, bead-derived peptide solution, three concentrations
Where a SMILES comes first, the peptide text is derived from it. [ ]: non-standard residue; d: D form. The star is where a group is joined. NHCH2CH2OH = OCCN*; For = O=C*

Compound | antibacterial activity
CC(C)C[C@@H](NC(=O)[C@H](C)NC(=O)[C@H](NC(=O)[C@H](C)NC(=O)CNC(=O)[C@@H](NC=O)C(C)C)[C@H](C)O)C(=O)N[C@H](C(=O)N[C@H](CC(C)C)C(=O)N[C@@H](Cc1c[nH]c2ccccc12)C(=O)N[C@H](CC(C)C)C(=O)N[C@@H](Cc1c[nH]c2ccccc12)C(=O)N[C@H](CC(C)C)C(=O)N[C@@H](Cc1c[nH]c2ccccc12)C(=O)N[C@@H](C(=O)N[C@@H](Cc1c[nH]c2ccccc12)C(=O)NCCO)C(C)C)C(C)C [compound 3778] (For-VGA[dT]A[dL]V[dL]W[dL]W[dL]W[dV]W-NHCH2CH2OH) | -
CC(C)C[C@@H](NC(=O)[C@H](C)NC(=O)CNC(=O)[C@@H](NC=O)C(C)C)C(=O)N[C@@H](C)C(=O)N[C@@H](C(=O)N[C@H](C(=O)N[C@@H](C(=O)N[C@@H](Cc1c[nH]c2ccccc12)C(=O)N[C@@H](C(=O)N[C@@H](Cc1c[nH]c2ccccc12)C(=O)N[C@H](CC(C)C)C(=O)N[C@@H](Cc1c[nH]c2ccccc12)C(=O)N[C@@H](C(=O)N[C@@H](Cc1c[nH]c2ccccc12)C(=O)NCCO)C(C)C)C(C)C)C(C)C)C(C)C)C(C)C [compound 9036] (For-VGA[dL]A[dV]V[dV]W[dV]W[dL]W[dV]W-NHCH2CH2OH) | +
